// values below are reported pIC50
Molecular target: VEGFR2 (KDR) (Homo sapiens)
Construct: The isolated catalytic domain (Amino Acids 807-1356) of VEGFR2; 6xHis (N); made in house; host or cells: Sf9 insect cells (baculovirus, pFASTBac-HIS)
Sequence (P35968 807-1356): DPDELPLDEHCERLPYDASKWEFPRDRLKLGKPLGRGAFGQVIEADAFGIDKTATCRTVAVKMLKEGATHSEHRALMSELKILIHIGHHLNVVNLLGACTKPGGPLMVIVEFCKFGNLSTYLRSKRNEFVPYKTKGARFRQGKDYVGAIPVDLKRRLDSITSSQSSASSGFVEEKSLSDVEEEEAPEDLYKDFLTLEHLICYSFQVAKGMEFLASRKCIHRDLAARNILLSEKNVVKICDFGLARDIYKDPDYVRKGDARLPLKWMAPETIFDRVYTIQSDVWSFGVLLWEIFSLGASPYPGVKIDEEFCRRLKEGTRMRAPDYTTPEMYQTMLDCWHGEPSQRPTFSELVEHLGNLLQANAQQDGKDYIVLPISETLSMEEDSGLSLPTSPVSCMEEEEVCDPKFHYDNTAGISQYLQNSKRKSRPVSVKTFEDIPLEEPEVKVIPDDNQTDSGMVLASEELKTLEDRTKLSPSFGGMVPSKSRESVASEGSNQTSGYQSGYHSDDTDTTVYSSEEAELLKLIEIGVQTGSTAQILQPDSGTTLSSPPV
Assay: KDR-CD in vitro autophosphorylation kinase assay
Format: biochemical
Details: 30 minute preincubation of compound and enzyme; average of at least two separate determinations; 1 μM ATP
FYI, pIC50 means -log10 of a concentration in mol per litre.

CC(C)(C)c1cc(NC(=O)Cc2ccc(-c3cnc4cc(-c5ccncc5)ccn34)cc2)ncn1 7.39
O=C(Cc1ccc(-c2cnc3cc(-c4ccncc4)ccn23)cc1)Nc1cccc(C(F)(F)F)c1 7.59
CC(C)(C)c1cc(NC(=O)Nc2ccc(-c3cnc4cc(-c5ccncc5)ccn34)cc2F)no1 7.38
CC(C)(C)c1cc(NC(=O)Cc2ccc(-c3cnc4cc(-c5ccc(S(C)(=O)=O)cc5)ccn34)cc2F)no1 6.97
CC(C)(C)c1cc(NC(=O)Cc2ccc(-c3cnc4cc(-c5cn[nH]c5)ccn34)cc2)no1 7.34

Now for another entry.
Could you tell me which pIC50 is on file for CC(C)(C)c1cnc(NC(=O)NCc2ccc(-c3cnc4cc(-c5ccncc5)ccn34)cc2)s1 ? 7.55

Source: patent US7666879B2
